- Test system: UACC-257
- Assay name: NCI tumour cell line growth inhibition, 48 h
Active and inactive are the calls of the source. Rule as the data show it: active = GI50 up to about 1.1 µM and inactive = higher.
Value type: GI50

// known answers, use as guide
CN1CCCS/C1=C1/SC(=S)N(c2ccccc2)C1=O; > 100 µM (inactive)
C#CCNC(=O)NCCCCC(NC(=O)OCc1ccccc1)C(=O)OCc1ccccc1 (stereo unspecified); 33.2 µM (inactive)
CC(NC(CC12CC3CC(CC(C3)C1)C2)C(N)=O)c1ccccc1 (stereo unspecified); 15.2 µM (inactive)
Cc1ccc(NC(=O)c2ccccc2C(=O)O)cc1C; > 100 µM (inactive)
CC(C#N)(c1ccccc1)N(CCc1ccccc1)C(=O)Oc1ccccc1 (stereo unspecified); > 100 µM (inactive)

Next up:
Enquiry: Indicate the recorded GI50 value for this compound: COc1cccc(NC(=O)C(C)(C)C)c1C=O
Return: 65.8 µM (inactive)

====

- Tested on: XF498
- Assay name: NCI tumour cell line growth inhibition, 48 h
Activity calls are given as the source filed them. Rule as the data show it: active = GI50 up to about 1.1 µM and inactive = higher.
Allowed answers: active, inactive

# count of solved cases: 8
O=C(CC1(O)C(=O)Nc2ccc([N+](=O)[O-])cc21)c1ccc(Br)cc1 (stereo not given); inactive
CCC1=CC2CN3CCc4c([nH]c5ccccc45)C(C(=O)OC)(C2)C13 (stereo not given); inactive
CC1(C)OCN(c2ccc(S(N)(=O)=O)cc2)Cn2c1nc1ccccc12; inactive
CCOC1c2cc(OC)c(OC)cc2-c2ccc3ccccc3c2N1C (stereo not given); inactive
O=C(/C=C/c1ccc(OCCCOc2ccc(/C=C/C(=O)c3ccc(Cl)cc3)cc2)cc1)c1ccc(Cl)cc1; inactive
NC(CCCNc1ccc(O)cc1)C(=O)O (stereo not given); inactive
CN(C(=O)c1ccco1)C(=S)N1CCN(c2ccccn2)CC1; inactive
COc1cccc2c1C(=O)c1c(O)c3c(c(O)c1C2=O)C[C@](O)(C(=O)CO)CC3OC1CC(N)C(OC2CCCCO2)C(C)O1 (stereo not given in full); active

Enquiry: Please state the recorded outcome for this molecule: NC1=NC(=O)C(CC(=O)Nc2ccc(Cl)cc2Cl)S1 (stereo not given)
Return: inactive

Enquiry: Please state the recorded outcome for this molecule: COc1cc(OC)c2c(O)cc(CC(C)O)cc2c1 (stereo not given)
Return: inactive

====

Reported values of GI50 for individual entries
- Tested on: IGROV-1
- Assay name: NCI tumour cell line growth inhibition, 48 h
Calls of active or inactive are those of the source. Cut-off read from the data, not from the text of the source: active = GI50 up to about 1.1 µM and inactive = higher.

// known answers, use as guide
CN1CCC(CNC(=O)CCCCCCCCC(=O)NCC2(c3ccccc3)CCN(C)CC2)(c2ccccc2)CC1; > 100 µM (inactive)
CN(C)/C=N/S(=O)(=O)c1nn2c(C=O)c(-c3ccc([N+](=O)[O-])cc3)nc2s1; 3.15 µM (inactive)
COc1cccc(/C(C=O)=C(\Cl)c2ccc(OC)c(OC)c2)c1; 21.1 µM (inactive)

Next up:
Enquiry: Indicate the recorded GI50 value for this compound: NNc1[nH]c(=S)[nH]c1C(N)=O
Return: > 100 µM (inactive)

====

- Test system: PC-3
- Assay name: NCI tumour cell line growth inhibition, 48 h
Active and inactive are the calls of the source. No stated cut-off is given here; in the data, active = GI50 up to about 1.1 µM and inactive = higher.
Allowed answers: 1.0 (active), 0.0 (inactive)

NCCCNCCCCN1CCOC1=O; 0.0

Enquiry: Please state the recorded outcome for this molecule: O=C1CC(c2ccccc2Cl)C2(C(=O)NC(=S)NC2=O)C(c2ccccc2Cl)C1 (stereo unspecified)
Return: 0.0

Enquiry: Please state the recorded outcome for this molecule: CC(C)=C/C=C1/CS(=O)(=O)C=C1C
Return: 0.0

Enquiry: Please state the recorded outcome for this molecule: CC1(C)Cc2nc3c(cc2C(=O)C1/C=N/C(C#N)=C(\N)C#N)C(=O)C(/C=N/C(C#N)=C(\N)C#N)C(C)(C)C3 (stereo unspecified)
Return: 0.0

Enquiry: Please state the recorded outcome for this molecule: C1CCSCCCCSCCCCSCCCCSC1
Return: 0.0

Enquiry: Please state the recorded outcome for this molecule: CC1(C)SC2C(NC(=O)Cc3ccccc3)C(=O)N2C1C(=O)O (stereo unspecified)
Return: 0.0

Enquiry: Please state the recorded outcome for this molecule: O=C1/C(=C/c2cc3c(=O)c4ccccc4sc3s2)NC(=S)N1c1ccccc1
Return: 0.0

Enquiry: Please state the recorded outcome for this molecule: COc1cccc(-c2cc(O)c3cc(Cl)cnc3n2)c1
Return: 1.0

Enquiry: Please state the recorded outcome for this molecule: COc1ccc(/C=C\c2cc(OC)c(OC)c(OC)c2)c(O)c1O [COMBRETASTATIN A-1]
Return: 1.0

Enquiry: Please state the recorded outcome for this molecule: C[C@@H](NC(=O)[C@@H]1C[C@]1(C)CO)c1cccc2ccccc12
Return: 0.0

Enquiry: Please state the recorded outcome for this molecule: CCN(CC(O)COc1ccc2c(c1)[n+]([O-])nc(N)[n+]2[O-])C(C)=O (stereo unspecified)
Return: 0.0

Enquiry: Please state the recorded outcome for this molecule: C=CC/C=C/Cc1csc(C(C)(C)C(O)C/C=C/C(=C)CCNC(=O)OC)n1 (stereo unspecified)
Return: 0.0

Enquiry: Please state the recorded outcome for this molecule: COC1=CCC2=C(CCN(C(=O)C3CCC3)C2Cc2ccc(OC)c(O)c2)C1 (stereo unspecified)
Return: 0.0

Enquiry: Please state the recorded outcome for this molecule: CC1OC(OC2C[C@](O)(C(=O)CF)Cc3c(O)c4c(c(O)c32)C(=O)c2ccccc2C4=O)CC(N)C1O (stereo partly specified)
Return: 1.0

Enquiry: Please state the recorded outcome for this molecule: COc1ccc(N2C(=O)C3c4[nH]c5ccccc5c4C4CCCCCCCC4C3C2=O)cc1 (stereo unspecified)
Return: 0.0

Enquiry: Please state the recorded outcome for this molecule: CC1=CC(C)(C)NN1C1=NS(=O)(=O)c2ccccc2N1C
Return: 0.0

Enquiry: Please state the recorded outcome for this molecule: CCC(=O)COc1ccc(NC(NC(=O)C(C(F)(F)F)C(F)(F)F)(C(F)(F)F)C(F)(F)F)cc1
Return: 0.0

Enquiry: Please state the recorded outcome for this molecule: N=C(N)N/N=C/c1c(-c2ccc(Cl)cc2)nc2n1CCS2
Return: 0.0

These measurements were taken from ChEMBL document CHEMBL1201862.
